- Target or test system: BRD4 second bromodomain BD2 (349-460), His-SUMO tag removed (UniProt O60885 349-460, 15N-labeled)
- Assay explanation: NMR titration
No end group written: not given here.
Assignment: determine reported pKd for the given binders.
One number for each entry, as −log10 of the molar value.

VYSRVK(Ac)NLNSS [SARS-CoV-2 E peptide, residues 58-68, acetylated at K63]
3.77

Shift focus to the following entry.
Prompt line: Give its pKd value. Item: NVSLVK(Ac)PSFYV [SARS-CoV-2 E peptide, residues 48-58, acetylated at K53]
Response line: 3.21
